# TESTED_ON: Dopamine β-Hydroxylase (Bos taurus, UniProt P15101)
# Sequence (P15101 1-610): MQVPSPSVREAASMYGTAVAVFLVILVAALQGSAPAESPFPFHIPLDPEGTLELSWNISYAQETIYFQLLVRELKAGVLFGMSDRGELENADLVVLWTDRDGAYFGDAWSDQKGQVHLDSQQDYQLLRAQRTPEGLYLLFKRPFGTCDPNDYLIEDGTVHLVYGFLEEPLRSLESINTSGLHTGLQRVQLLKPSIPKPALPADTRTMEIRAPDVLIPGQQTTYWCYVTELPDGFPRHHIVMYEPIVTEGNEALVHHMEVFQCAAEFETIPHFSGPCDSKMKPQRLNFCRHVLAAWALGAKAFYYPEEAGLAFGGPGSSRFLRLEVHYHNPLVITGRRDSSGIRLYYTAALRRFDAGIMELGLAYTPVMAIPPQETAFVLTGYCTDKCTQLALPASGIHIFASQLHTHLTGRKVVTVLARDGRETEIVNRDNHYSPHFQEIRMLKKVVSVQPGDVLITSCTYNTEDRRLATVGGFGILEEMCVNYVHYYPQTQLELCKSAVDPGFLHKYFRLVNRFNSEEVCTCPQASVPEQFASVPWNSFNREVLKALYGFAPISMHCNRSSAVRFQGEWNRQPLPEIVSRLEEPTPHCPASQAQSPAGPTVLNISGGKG
pIC50: −log10 of the molar value.
QUANTITY: pIC50

COMPOUND	EXPERIMENTAL_VALUE
COc1ccccc1CCC(=O)C1C(=O)C=C(C)OC1=O (stereo not shown)	5.72

* * *

# TESTED_ON: Tyrosine Hydroxylase (Bos taurus)
# RUN_DESCRIPTION: Inhibition of tyrosine hydroxylase (TH)
# Type: biochemical
# CONDITION: 200 mcg/cc

MOLECULE	UNIT	inhibition at 200 µg/mL
COc1cccc(CCC(=O)C2C(=O)C=C(C)OC2=O)c1 (stereo not shown) [Example 25]	%	34.9
CC1=CC(=O)C(C(=O)CCc2ccc(Cl)cc2Cl)C(=O)O1 (stereo not shown) [Example 28]	%	29.1
CC1=CC(=O)C(C(=O)CCc2cc(Cl)cc(Cl)c2O)C(=O)O1 (stereo not shown) [Example 34]	%	69.3
CC1=CC(=O)C(C(=O)CCc2cccc(Br)c2)C(=O)O1 (stereo not shown) [Example 26]	%	19.8
COc1ccc(CCC(=O)C2C(=O)C=C(C)OC2=O)cc1O (stereo not shown) [Example 2]	%	93.9
CC1=CC(=O)C(C(=O)CCc2ccc(O)cc2)C(=O)O1 (stereo not shown) [Example 7]	%	70.6
CC1=CC(=O)C(C(=O)CCc2ccc(C(C)C)cc2)C(=O)O1 (stereo not shown) [Example 20]	%	25.5
CC1=CC(=O)C(C(=O)CCc2ccccc2O)C(=O)O1 (stereo not shown) [Example 13]	%	59.5
CC1=CC(=O)C(C(=O)CCc2ccccc2)C(=O)O1 (stereo not shown) [reference compound]	%	52.8
CC1=CC(=O)C(C(=O)CCc2ccco2)C(=O)O1 (stereo not shown) [Example 24]	%	45.5
CC1=CC(=O)C(C(=O)CCc2ccc(N(C)C)cc2)C(=O)O1 (stereo not shown) [Example 16]	%	26.1
CC1=CC(=O)C(C(=O)CCc2ccc(C)cc2)C(=O)O1 (stereo not shown) [Example 29]	%	52.6
COc1cc(CCC(=O)C2C(=O)C=C(C)OC2=O)ccc1O (stereo not shown) [Example 19]	%	26
COc1ccc(CCC(=O)C2C(=O)C=C(C)OC2=O)cc1 (stereo not shown) [Example 1]	%	47.9
COc1ccc(CCC(=O)C2C(=O)C=C(C)OC2=O)c(OC)c1 (stereo not shown) [Example 27]	%	26
COc1cccc(CCC(=O)C2C(=O)C=C(C)OC2=O)c1O (stereo not shown) [Example 15]	%	29.9
COC(=O)c1ccc(CCC(=O)C2C(=O)C=C(C)OC2=O)cc1 (stereo not shown) [Example 14]	%	15
CC1=CC(=O)C(C(=O)CCc2ccc(Cl)c(Cl)c2)C(=O)O1 (stereo not shown) [Example 6]	%	61
COc1ccc(CCC(=O)C2C(=O)C=C(C)OC2=O)cc1OC (stereo not shown) [reference compound]	%	72.5

* * *

# TESTED_ON: Tyrosine Hydroxylase (Bos taurus, UniProt P17289)
# Sequence (P17289 whole entry): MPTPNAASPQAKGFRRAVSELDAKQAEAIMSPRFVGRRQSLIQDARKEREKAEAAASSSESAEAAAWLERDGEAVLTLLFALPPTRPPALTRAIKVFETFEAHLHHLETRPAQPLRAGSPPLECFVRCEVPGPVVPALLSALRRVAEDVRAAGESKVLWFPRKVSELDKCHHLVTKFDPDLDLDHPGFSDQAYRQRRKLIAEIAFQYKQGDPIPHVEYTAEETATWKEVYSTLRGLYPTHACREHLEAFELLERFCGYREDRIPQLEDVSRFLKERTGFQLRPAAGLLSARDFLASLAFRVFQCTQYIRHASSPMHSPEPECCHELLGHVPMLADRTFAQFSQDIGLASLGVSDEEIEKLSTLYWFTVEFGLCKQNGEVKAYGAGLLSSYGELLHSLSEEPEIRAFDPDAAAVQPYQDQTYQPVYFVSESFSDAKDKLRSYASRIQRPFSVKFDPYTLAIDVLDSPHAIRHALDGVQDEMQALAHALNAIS
# RUN_DESCRIPTION: Inhibition of tyrosine hydroxylase (TH)
# Type: biochemical
# CONDITION: 200 mcg/cc
QUANTITY: inhibition at 200 µg/mL (%)

COMPOUND	UNIT	EXPERIMENTAL_VALUE
CC1=CC(=O)C(C(=O)CCc2cccc(O)c2)C(=O)O1 (stereo not shown) [Example 4]	%	67.2
CC1=CC(=O)C(C(=O)CCc2ccc(O)c(O)c2)C(=O)O1 (stereo not shown) [Example 9]	%	93.5
CC1=CC(=O)C(C(=O)CCc2ccc3c(c2)OCO3)C(=O)O1 (stereo not shown) [Example 3]	%	18.5
CC1=CC(=O)C(C(=O)CCc2cccc(Cl)c2)C(=O)O1 (stereo not shown) [Example 10]	%	26.5
